Hey, just so you know, these numbers are from patent US10358454B2.

Biological target: Mcl-1/Bim (Homo sapiens, UniProt Q07820)
Sequence (Q07820 whole entry): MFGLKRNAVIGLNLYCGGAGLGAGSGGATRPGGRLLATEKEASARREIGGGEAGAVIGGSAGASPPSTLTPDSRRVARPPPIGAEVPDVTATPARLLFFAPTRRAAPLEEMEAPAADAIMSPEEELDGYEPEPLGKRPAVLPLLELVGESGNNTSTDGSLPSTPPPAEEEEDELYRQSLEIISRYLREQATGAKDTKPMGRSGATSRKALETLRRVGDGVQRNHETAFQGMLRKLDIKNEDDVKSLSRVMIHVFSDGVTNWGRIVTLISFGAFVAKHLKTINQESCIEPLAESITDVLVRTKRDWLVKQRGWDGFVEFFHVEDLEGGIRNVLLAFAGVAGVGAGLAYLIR
Assay: Mcl-1/Bim ELISA (GST-Mcl-1 binding to biotinylated Bim BH3 peptide)
Conditions: Table 3-C structure IV; n ≥ 3; read-out: Mcl-1-Bim IC50 (average ± SEM)
measured_property: pIC50
// scale note: pIC50 = -log10(conc_M); give the bare number

Field: example entries. Status: answers known.
O=C(O)c1ccc(C(=O)c2cc(Cl)c3n2-c2c([nH]c(Cl)c2Cl)C(=O)c2ccc(C(=O)O)cc2O3)c(O)c1    5.41
O=C1c2ccc(O)cc2Oc2c(Cl)cc(C(=O)c3ccc(O)cc3O)n2-c2c1[nH]c(Cl)c2Cl    5.10

Pending compound:
Inquiry: So what does the record say about pIC50 for "COC(=O)c1ccc(C(=O)c2cc(Cl)c3n2-c2c([nH]c(Cl)c2Cl)C(=O)c2ccc(C(=O)OC)cc2O3)c(O)c1" ?
Reply text: 5.39
